Tested on: MDA-MB-231 triple-negative breast cancer cells
assay.summary: cells
Type: cell-based, human
cond: ratio of IC50 for healthy (MCF-10A) and MDA-MB-231 cells
Below, each of the compounds is paired with its reported Selectivity Index (SI), MDA-MB-231 value.
quantity: Selectivity Index (SI), MDA-MB-231

{"compound": "C=C(C)CCC[C@]1(C)OC(=O)C23CC=C4[C@@H](CC[C@H]5C(C)(C)[C@@H](O[C@@H]6OC[C@@H](O[C@@H]7O[C@H](CO)[C@@H](O)[C@H](O[C@@H]8O[C@H](COS(=O)(=O)[O-])[C@@H](O)[C@H](OC)[C@H]8O)[C@H]7O)[C@H](O)[C@H]6O[C@@H]6O[C@H](C)[C@@H](O[C@@H]7OC[C@@H](O)[C@H](O[C@@H]8O[C@H](CO)[C@@H](O)[C@H](OC)[C@H]8O)[C@H]7O)[C@H](O)[C@H]6O)CC[C@]45C)[C@]2(C)CC(=O)[C@@H]31.[Na+] (stereo partly shown) [Cladoloside L1 (33), Cladoloside L1]", "observed.value": 1.34}
{"compound": "C=C(C)CCC[C@]1(C)OC(=O)C23CC=C4[C@@H](CC[C@H]5C(C)(C)[C@@H](O[C@@H]6OC[C@@H](O[C@@H]7O[C@H](CO)[C@@H](O)[C@H](O[C@@H]8O[C@H](CO)[C@@H](O)[C@H](OC)[C@H]8O)[C@H]7O)[C@H](O)[C@H]6O[C@@H]6O[C@H](C)[C@@H](O[C@@H]7O[C@H](CO)[C@@H](O)[C@H](O[C@@H]8O[C@H](CO)[C@@H](O)[C@H](OC)[C@H]8O)[C@H]7O)[C@H](O)[C@H]6O)CC[C@]45C)[C@]2(C)CC(=O)[C@@H]31 (stereo partly shown) [Cladoloside M1 (35), cladoloside M1]", "observed.value": 1.94}
{"compound": "CO[C@@H]1[C@@H](O)[C@H](O[C@@H]2[C@@H](O)[C@H](O[C@H]3[C@H](O)[C@@H](O)[C@H](O[C@H]4[C@H](O[C@H]5CC[C@]6(C)C7=CCC89C(=O)O[C@@](C)([C@@H](CCC(C)C)OC(C)=O)[C@H]8[C@@H](OC(C)=O)C[C@@]9(C)[C@@H]7CC[C@H]6C5(C)C)OC[C@@H](O[C@@H]5O[C@H](CO)[C@@H](O)[C@H](O)[C@H]5O)[C@@H]4O)O[C@@H]3C)OC[C@H]2O)O[C@H](CO)[C@H]1O (stereo partly shown) [Cladoloside B1 (11), cladoloside B1]", "observed.value": ">1.98"}
{"compound": "C=C(C)CC[C@@H](OC(C)=O)[C@]1(C)OC(=O)C23CC=C4[C@@H](CC[C@H]5C(C)(C)[C@@H](O[C@@H]6OC[C@@H](O[C@@H]7OC[C@@H](O)[C@H](O)[C@H]7O)[C@H](O)[C@H]6O[C@@H]6O[C@H](C)[C@@H](O[C@@H]7OC[C@@H](O)[C@H](O[C@@H]8O[C@H](COS(=O)(=O)O)[C@@H](O)[C@H](OC)[C@H]8O)[C@H]7O)[C@H](O)[C@H]6O)CC[C@]45C)[C@]2(C)C[C@H](OC(C)=O)[C@@H]31 (stereo partly shown) [Cladoloside S (1)]", "observed.value": ">1.51"}
